# Tested on: Stellaria media (STEME)
# protocol_notes: Post-emergence glasshouse spray test, visual percentage phytotoxicity after 13 days
# Format: in vivo
# cond: B1; 2.5 g/ha post-emergence
reported_property: STEME percentage phytotoxicity
Phrase the answer as number then unit, nothing more needed.

Worked set:
{"columns": ["item_smiles", "STEME percentage phytotoxicity"],
 "data": [
  ["COc1c(Cl)ccc(-c2nc(C(=O)OCc3ccccc3)c(Cl)c(N)c2F)c1F", "75%"],
  ["CS(=O)(=O)c1ccc(C(=O)C2C(=O)CCCC2=O)c(Cl)c1OCCC1OCCO1", "45%"],
  ["FC(F)c1cc(-c2c(Cl)cccc2Oc2ncc(Cl)cn2)on1", "88%"],
  ["Nc1c(F)c(-c2ccc3cc[nH]c3c2F)nc(C(=O)O)c1Cl", "65%"]
]}

Now for a further compound.
Recorded STEME percentage phytotoxicity for CCOC(=O)COc1ncccc1Oc1cc(-n2c(=O)cc(C(F)(F)F)n(C)c2=O)c(F)cc1Cl , please?
100%

###

# Test system: Chenopodium album (CHEAL)
# protocol_notes: Post-emergence glasshouse spray test, visual percentage phytotoxicity after 13 days
# Type: in vivo
# cond: B1; 5 g/ha post-emergence
// reported CHEAL percentage phytotoxicity per item
The answer is to be given in %; state only the numeric part.

{"columns": ["item_smiles", "CHEAL percentage phytotoxicity / %"],
 "data": [
  ["FC(F)c1cc(-c2c(Cl)cccc2Oc2ncc(Cl)cn2)on1", 76],
  ["COc1c(Cl)ccc(-c2nc(C(=O)OCc3ccccc3)c(Cl)c(N)c2F)c1F", 70],
  ["CCOC(=O)COc1ncccc1Oc1cc(-n2c(=O)cc(C(F)(F)F)n(C)c2=O)c(F)cc1Cl", 100],
  ["Nc1c(F)c(-c2ccc3cc[nH]c3c2F)nc(C(=O)O)c1Cl", 94]
]}

Please provide the recorded CHEAL percentage phytotoxicity for CS(=O)(=O)c1ccc(C(=O)C2C(=O)CCCC2=O)c(Cl)c1OCCC1OCCO1 , tested on Chenopodium album (CHEAL).
53

###

// reported LOLPE percentage phytotoxicity per item
# System: Lolium perenne (LOLPE)
# protocol_notes: Post-emergence glasshouse spray test, visual percentage phytotoxicity after 13 days
# Format: in vivo
# cond: B1; 0.625 g/ha post-emergence
Phrase the answer as number then unit, nothing more needed.

Worked set:
{"columns": ["item_smiles", "LOLPE percentage phytotoxicity"],
 "data": [
  ["CS(=O)(=O)c1ccc(C(=O)C2C(=O)CCCC2=O)c(Cl)c1OCCC1OCCO1", "0%"],
  ["Nc1c(F)c(-c2ccc3cc[nH]c3c2F)nc(C(=O)O)c1Cl", "0%"],
  ["FC(F)c1cc(-c2c(Cl)cccc2Oc2ncc(Cl)cn2)on1", "4%"]
]}

Recorded LOLPE percentage phytotoxicity for COc1c(Cl)ccc(-c2nc(C(=O)OCc3ccccc3)c(Cl)c(N)c2F)c1F , please?
0%

Recorded LOLPE percentage phytotoxicity for CCOC(=O)COc1ncccc1Oc1cc(-n2c(=O)cc(C(F)(F)F)n(C)c2=O)c(F)cc1Cl , please?
0%

###

# System: Amaranthus retroflexus (AMARE)
# protocol_notes: Post-emergence glasshouse spray test, visual percentage phytotoxicity after 13 days
# Format: in vivo
# cond: B1; 1.25 g/ha post-emergence
// reported AMARE percentage phytotoxicity per item
The answer is to be given in %; state only the numeric part.

{"columns": ["compound", "AMARE percentage phytotoxicity [%]"],
 "data": [
  ["COc1c(Cl)ccc(-c2nc(C(=O)OCc3ccccc3)c(Cl)c(N)c2F)c1F [B-I]", 58],
  ["FC(F)c1cc(-c2c(Cl)cccc2Oc2ncc(Cl)cn2)on1 [A-I]", 70],
  ["CS(=O)(=O)c1ccc(C(=O)C2C(=O)CCCC2=O)c(Cl)c1OCCC1OCCO1 [B-II]", 5],
  ["CCOC(=O)COc1ncccc1Oc1cc(-n2c(=O)cc(C(F)(F)F)n(C)c2=O)c(F)cc1Cl [B-V]", 100]
]}

Now for a further compound.
Please provide the recorded AMARE percentage phytotoxicity for Nc1c(F)c(-c2ccc3cc[nH]c3c2F)nc(C(=O)O)c1Cl [B-VI] , tested on Amaranthus retroflexus (AMARE).
65
